// reported t 1 (aggregation endpoint) for each item listed
Target: human amylin (hIAPP) (Homo sapiens, UniProt P10997)
Construct: purchased Bachem USA
Sequence (P10997 34-70 limits assumed): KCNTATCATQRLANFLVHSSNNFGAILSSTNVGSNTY
Assay: Kinetic analysis of amylin aggregation (ThT, two-step autocatalytic aggregation model)
Type: biochemical
Settings: 90% of highest ThT fluorescence, mean ± S.D.
Answer in h, number only, no unit symbol.

Example molecules with recorded t 1 (aggregation endpoint):
OC(CNCCC(c1ccccc1)c1ccccc1)CNCc1ccccc1 (centres unmarked) : 25.52
CC(C)(C)c1cccc(CNCC(O)CCNCCC(c2ccccc2)c2ccccc2)c1 (centres unmarked) : 20.69
CC(C)(C)c1cccc(CNCC(O)CN2CCN(C(c3ccccc3)c3ccccc3)CC2)c1 (centres unmarked) : 25.27
CC(C)(C)c1cccc(CNCC(O)CCN2CCN(C(c3ccccc3)c3ccccc3)CC2)c1 (centres unmarked) : 28.41
CC(C)(C)c1cccc(CNCC(O)CCNCC(c2ccccc2)c2ccccc2)c1 (centres unmarked) : 28.19
CC(C)(C)c1cccc(CNCC(O)CNCCC(c2ccccc2)c2ccccc2)c1 (centres unmarked) : 29.29
C/C=C1/C(O)OC=C(C(=O)OC)[C@H]1CC(=O)OCCc1ccc(O)c(O)c1 (mixture of isomers) [Oleuropein aglycone, reference compound] : 28.83

// below: t 1 (aggregation endpoint) requested for another molecule
Which t 1 (aggregation endpoint) is reported for this molecule? CC(C)(C)c1cccc(CNCC(O)CNCC(c2ccccc2)c2ccccc2)c1 (centres unmarked)
29.48

* * *

Molecular target: human amylin (hIAPP) (Homo sapiens)
Construct: purchased Bachem USA
Assay: Thioflavin T (ThT) fluorescence assay of amylin aggregation
Assay type: biochemical
Details: read-out: ThT inhibition % (mean ± SEM), compound 10 μM, amylin 15 μM, 36 h incubation, 3 trials
quantity kind: inhibition at 10 µM (%)
Report the figure in % without appending any unit label.

OC(CCN1CCN(C(c2ccccc2)c2ccccc2)CC1)CNCc1ccccc1 (stereo not drawn) : 20.8
COc1ccc(CNCC(O)CCN2CCN(Cc3ccccc3)CC2)cc1 (stereo not drawn) : 31.1
OC(CNCc1ccccc1)CN1CCN(C(c2ccccc2)c2ccccc2)CC1 (stereo not drawn) : 15.5
COc1ccc(CNCC(O)CN2CCN(Cc3ccccc3)CC2)cc1 (stereo not drawn) : 8.8
OC(CNCCC(c1ccccc1)c1ccccc1)CNCc1ccccc1 (stereo not drawn) : 58.8
OC(CNCc1ccccc1)CNCC(c1ccccc1)c1ccccc1 (stereo not drawn) : 37.4
OC(CCNCC(c1ccccc1)c1ccccc1)CNCc1ccccc1 (stereo not drawn) : 33.7
COc1ccc(CNCC(O)CN2CCN(C(c3ccccc3)c3ccccc3)CC2)cc1 (stereo not drawn) : 12.1

Given the compound COc1ccc(CNCC(O)CCN2CCN(C(c3ccc(F)cc3)c3ccc(F)cc3)CC2)cc1 (stereo not drawn) , what is its reported inhibition at 10 µM?
5

* * *

Catalogue of ρ (ratio of kn to k) readings, one per entry.
Molecular target: human amylin (hIAPP) (Homo sapiens, UniProt P10997)
Construct: purchased Bachem USA
Assay: Kinetic analysis of amylin aggregation (ThT, two-step autocatalytic aggregation model)
Type: biochemical
Settings: ThT data, autocatalytic aggregation model, mean ± S.D.
// print number alone

CC(C)(C)c1cccc(CNCC(O)CCNCC(c2ccccc2)c2ccccc2)c1 (centres unmarked) : 0.0145

Item CC(C)(C)c1cccc(CNCC(O)CCN2CCN(C(c3ccccc3)c3ccccc3)CC2)c1 (centres unmarked) with human amylin (hIAPP) (Homo sapiens, UniProt P10997) - ρ (ratio of kn to k)?
0.0038
